- System: MCF7
- Experiment summary: Cytotoxicity against human MCF7 cells after 48 hrs by SRB assay
- Type: functional
- Experimental conditions: MCF7, 48 h
Can you tell me GI50 for the items I'm about to list?
Kindly answer with a numeric value in nM, unit omitted.

Query string: Supply GI50 value. Item: COc1cc(/C=C/C(=O)N2CCN(C(=O)c3cc(OC)c(OC)c(OC)c3)CC2)ccc1OCCCCOc1cc2c(cc1OC)C(=O)N1CCC[C@H]1C=N2
Result string: 140

Query string: Supply GI50 value. Item: COc1cc(/C=C/C(=O)N2CCN(C(=O)/C=C/c3ccc(OCCCCOc4cc5c(cc4OC)C(=O)N4CCC[C@H]4C=N5)c(OC)c3)CC2)ccc1OCCCCOc1cc2c(cc1OC)C(=O)N1CCC[C@H]1C=N2
Result string: 150

Query string: Supply GI50 value. Item: COc1cc(/C=C/C(=O)N2CCOCC2)ccc1OCCCCOc1cc2c(cc1OC)C(=O)N1CCC[C@H]1C=N2
Result string: 140

Query string: Supply GI50 value. Item: COc1cc(/C=C/C(=O)N2CCN(C(=O)c3cc(OC)c(OC)c(OC)c3)CC2)ccc1OCCCOc1cc2c(cc1OC)C(=O)N1CCC[C@H]1C=N2
Result string: 80

Query string: Supply GI50 value. Item: COc1cc(/C=C/C(=O)N2CCN(C(=O)/C=C/c3ccc(OCCCCCOc4cc5c(cc4OC)C(=O)N4CCC[C@H]4C=N5)c(OC)c3)CC2)ccc1OCCCCCOc1cc2c(cc1OC)C(=O)N1CCC[C@H]1C=N2
Result string: 1000

Query string: Supply GI50 value. Item: COc1cc(/C=C/C(=O)N2CCN(C(=O)c3cc(OC)c(OC)c(OC)c3)CC2)ccc1OCCCCCOc1cc2c(cc1OC)C(=O)N1CCC[C@H]1C=N2
Result string: 130

Query string: Supply GI50 value. Item: COc1cc(/C=C/C(=O)N2CCN(C(=O)c3cc(OC)c(OC)c(OC)c3)CC2)ccc1OCCCCCCOc1cc2c(cc1OC)C(=O)N1CCC[C@H]1C=N2
Result string: 180
